System: s.c. pentetrazole
Assay explanation: Anticonvulsant action, s.c. pentetrazole (PTZ), mouse i.p.
Assay type: in vivo
Conditions: ip, dose 300 mg/kg, read-out: Action in % of the protected animals
responders at 300 mg/kg below 40% gives NO; responders at 300 mg/kg at or above it gives YES.

Smiles notation | Discrete label
Cc1ccccc1Cn1cnc2n[nH]cc2c1=O | YES
CC(C)n1cc2c(=O)n(Cc3c(F)cccc3Cl)cnc2n1 | NO
CCn1cc2c(=O)n(Cc3c(F)cccc3F)cnc2n1 | NO

Exercise: Could you tell me if the measured responders at 300 mg/kg of O=c1c2c[nH]nc2ncn1Cc1ccc(F)cc1 reaches 40% or more?
Key: YES

Exercise: Another molecule: COc1ccccc1Cn1cnc2nn(C)cc2c1=O
Key: YES
